target: TXA2 synthesis (crude TXA2 synthetase); assay: Inhibition of TXA2 synthesis (crude TXA2 synthetase, labeled arachidonic acid, RIA); details: TXA2 formation, 37° C., 10 min
Where a name gives a salt, the structure may show the parent alone.
Reported pIC50 values are given for each entry in this list.
For clarity, pIC50 is expressed as the negative log10 of concentration in mol/L.

Below, 4 molecules whose answers are already recorded.
>  <MOLECULE>
CCCCOc1nc(-c2cc(C(C)(C)C)c(O)c(C(C)(C)C)c2)nc2nc[nH]c12 [Example 3]

>  <TARGET UNDER TEST>
TXA2 synthesis (crude TXA2 synthetase)

>  <ATTRIBUTE MEASURED>
pIC50

>  <RECORDED VALUE>
6.76

$$$$
>  <MOLECULE>
COc1nc(-c2cc(C(C)(C)C)c(O)c(C(C)(C)C)c2)nc2nc[nH]c12 [Example 1]

>  <TARGET UNDER TEST>
TXA2 synthesis (crude TXA2 synthetase)

>  <ATTRIBUTE MEASURED>
pIC50

>  <RECORDED VALUE>
6.02

$$$$
>  <MOLECULE>
CCCOc1nc(-c2cc(C(C)(C)C)c(O)c(C(C)(C)C)c2)nc2nc[nH]c12 [Example 2]

>  <TARGET UNDER TEST>
TXA2 synthesis (crude TXA2 synthetase)

>  <ATTRIBUTE MEASURED>
pIC50

>  <RECORDED VALUE>
6.80

$$$$
>  <MOLECULE>
CCCCCCOc1nc(-c2cc(C(C)(C)C)c(O)c(C(C)(C)C)c2)nc2nc[nH]c12 [Example 4]

>  <TARGET UNDER TEST>
TXA2 synthesis (crude TXA2 synthetase)

>  <ATTRIBUTE MEASURED>
pIC50

>  <RECORDED VALUE>
6.03

$$$$

Record request: pIC50 value, item O=C(O)/C=C/c1ccc(Cn2ccnc2)cc1 [Ozagrel HCl, reference compound]
7.77

Give the measured pIC50 of CC(C)(C)c1cc(-c2nc(OCCc3ccccc3)c3[nH]cnc3n2)cc(C(C)(C)C)c1O [Example 6] .
6.17

###

Assay: Scavenging of active oxygen / inhibitory effect against lipid peroxidation (oxidation of linolenic acid to conjugated diene by hydroxy radical, Fenton reaction)
Format: biochemical
Conditions: linolenic acid 1.0 mM, absorbance at 234 nm
Protocol: The inhibitory effect against oxidation of linolenic acid to conjugated diene due to hydroxy radical (. OH) formed by Fenton reaction was determined according to the method of Kharasch et al. (see J. Biol. Chem., 2.60, 10,645 (1985)). […] Then, the changes of absorbance at 234 nm due to the formation of conjugated diene in the reaction solutions were determined periodically. […]
ATTRIBUTE MEASURED: IC50 (µM)
Unit µM implied. Number only.

These recorded examples may help you get a feel for the data.
>  <COMPOUND>
CC(C)(C)c1cc(-c2nc(OCCCC(=O)O)c3[nH]cnc3n2)cc(C(C)(C)C)c1O [Example 8]

>  <RECORDED VALUE>
4

$$$$
>  <COMPOUND>
CC(C)(C)c1cc(-c2nc(O)c3[nH]cnc3n2)cc(C(C)(C)C)c1O [Example 7]

>  <RECORDED VALUE>
3.4

$$$$
>  <COMPOUND>
CC(C)(C)c1cc(-c2nc(OCCCCCCCC(=O)O)c3[nH]cnc3n2)cc(C(C)(C)C)c1O [Example 10]

>  <RECORDED VALUE>
3.7

$$$$
>  <COMPOUND>
CC(C)(C)c1cc(-c2nc(OCCc3ccccc3)c3[nH]cnc3n2)cc(C(C)(C)C)c1O [Example 6]

>  <RECORDED VALUE>
3.5

$$$$
>  <COMPOUND>
CC(C)(C)c1cc(-c2nc(OCCCCCC(=O)O)c3[nH]cnc3n2)cc(C(C)(C)C)c1O [Example 9]

>  <RECORDED VALUE>
3.6

$$$$
>  <COMPOUND>
CCCCCCCCOc1nc(-c2cc(C(C)(C)C)c(O)c(C(C)(C)C)c2)nc2nc[nH]c12 [Example 5]

>  <RECORDED VALUE>
5.4

$$$$
>  <COMPOUND>
CCCCCCOc1nc(-c2cc(C(C)(C)C)c(O)c(C(C)(C)C)c2)nc2nc[nH]c12 [Example 4]

>  <RECORDED VALUE>
3.7

$$$$
>  <COMPOUND>
CCCCOc1nc(-c2cc(C(C)(C)C)c(O)c(C(C)(C)C)c2)nc2nc[nH]c12 [Example 3]

>  <RECORDED VALUE>
3.5

$$$$
>  <COMPOUND>
CC(C)(C)c1cc(-c2nc(OCc3ccc(C(=O)O)cc3)c3[nH]cnc3n2)cc(C(C)(C)C)c1O [Example 11]

>  <RECORDED VALUE>
3.9

$$$$
>  <COMPOUND>
CCCOc1nc(-c2cc(C(C)(C)C)c(O)c(C(C)(C)C)c2)nc2nc[nH]c12 [Example 2]

>  <RECORDED VALUE>
3.4

$$$$

Read the next record carefully.
If you can, please state the reported IC50 value of COc1nc(-c2cc(C(C)(C)C)c(O)c(C(C)(C)C)c2)nc2nc[nH]c12 [Example 1] .
3.5

Cited source: patent US5602140A
